Where these numbers come from: patent US20260209242A1

- Target Of Assay: CYP3A4 (Homo sapiens)
- Construct: from tissue; host or cells: human liver microsomes
- Sequence (P08684 whole entry): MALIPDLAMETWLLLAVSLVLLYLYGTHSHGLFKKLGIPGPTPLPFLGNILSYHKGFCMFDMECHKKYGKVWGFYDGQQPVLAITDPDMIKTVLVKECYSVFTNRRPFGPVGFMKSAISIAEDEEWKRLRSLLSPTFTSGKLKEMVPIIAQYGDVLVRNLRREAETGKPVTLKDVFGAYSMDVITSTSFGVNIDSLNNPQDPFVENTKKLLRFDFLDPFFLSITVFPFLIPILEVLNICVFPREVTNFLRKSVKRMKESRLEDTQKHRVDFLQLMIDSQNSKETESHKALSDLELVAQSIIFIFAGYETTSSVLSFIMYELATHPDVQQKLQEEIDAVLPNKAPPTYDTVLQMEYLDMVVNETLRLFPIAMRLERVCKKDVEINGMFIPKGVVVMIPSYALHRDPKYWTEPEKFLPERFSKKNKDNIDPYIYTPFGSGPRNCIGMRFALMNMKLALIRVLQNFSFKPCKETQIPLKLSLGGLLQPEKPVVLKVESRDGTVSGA
- Test Name: Inhibition on human hepatomicrosomes CYP3A4
- Type: in vitro ADME
- Recorded Conditions: read-out: 3A4M (IC50 μM); human hepatomicrosomes, substrate midazolam
The following compounds are listed with their measured IC50 values.

Compound	Quantity	Recorded Value
CC[C@@]1(O)C(=O)OCc2c1cc1n(c2=O)Cc2c-1nc1cc(F)c(C)c3c1c2C(NC(=O)C[C@@H](C)O)CCC3 (single isomer, unassigned)	IC50	> 30 µM

Then there is this compound:
So, CC[C@@]1(O)C(=O)OCc2c1cc1n(c2=O)Cc2c-1nc1cc(F)c(C3CC3)c3c1c2C(NC(=O)C[C@@H](C)O)CC3 (single isomer, unassigned) ? Its IC50 was > 30 µM

* * *

- Test Name: Pharmacokinetic test in SD rats
- Recorded Conditions: male, Sprague-Dawley (SD), rat, in vivo, iv, 2 mg/kg
Quantity: C0 (ng/mL)
Reply with just the number (in ng/mL).

Solved entries:
Molecule	C0 / ng/mL
CC[C@@]1(O)C(=O)OCc2c1cc1n(c2=O)Cc2c-1nc1cc(F)c(C)c3c1c2C(NC(=O)C[C@@H](C)O)CCC3 (single isomer, unassigned)	677
CC[C@@]1(O)C(=O)OCc2c1cc1n(c2=O)Cc2c-1nc1cc(F)c(C3CC3)c3c1c2C(NC(=O)C[C@@H](C)O)CC3 (single isomer, unassigned)	2690

Then there is this molecule:
So, "CC[C@@]1(O)C(=O)OCc2c1cc1n(c2=O)Cc2c-1nc1cc(F)c(C)c3c1c2[C@@H](NC(=O)[C@@H](O)C1CC1)CCC3" ? Its C0 was 848

* * *

The following compounds each carry a recorded pIC50 for CYP2D6 (Homo sapiens).
pIC50: −log10 of the molar value.

Solved entries:
Compound	Recorded Value
CC[C@@]1(O)C(=O)OCc2c1cc1n(c2=O)Cc2c-1nc1cc(F)c(C3CC3)c3c1c2C(NC(=O)C[C@@H](C)O)CC3 (single isomer, unassigned) [Compound 17-2]	< 4.52
CC[C@@]1(O)C(=O)OCc2c1cc1n(c2=O)Cc2c-1nc1cc(F)c(C)c3c1c2C(NC(=O)C[C@@H](C)O)CCC3 (single isomer, unassigned) [Compound 6-2]	< 4.52

So, CC[C@@]1(O)C(=O)OCc2c1cc1n(c2=O)Cc2c-1nc1cc(F)c(C)c3c1c2[C@@H](NC(=O)[C@@H](O)C1CC1)CCC3 [Compound 11-2] ? Its pIC50 was < 4.52

* * *

The following molecules are listed with their measured IC50 values.
- Test system: NCI-N87
- Test Name: Inhibition of proliferation of cells NCI-N87 (CelltiterGlo, 72 h)
- Type: cell-based
- Recorded Conditions: Homo sapiens; NCI-N87 cells, 72 h, CTG; read-out: IC50 (nM), antiproliferative activity on cells NCI-N87
Reply with just the number (in nM).

Molecule	IC50 (nM)
CC[C@@]1(O)C(=O)OCc2c1cc1n(c2=O)Cc2c-1nc1cc(F)c(C)c3c1c2[C@@H](NC(=O)[C@@H](O)C1CC1)CCC3 [Compound 11-2]	2.3

So, CC[C@@]1(O)C(=O)OCc2c1cc1n(c2=O)Cc2c-1nc1cc(F)c(C)c3c1c2[C@@H](NC(=O)[C@H](O)C1CC1)CCC3 [Compound 11-1] ? Its IC50 was 2.5
